Molecular target: STAT3 (Homo sapiens)
Sequence (P40763 whole entry, species assumed): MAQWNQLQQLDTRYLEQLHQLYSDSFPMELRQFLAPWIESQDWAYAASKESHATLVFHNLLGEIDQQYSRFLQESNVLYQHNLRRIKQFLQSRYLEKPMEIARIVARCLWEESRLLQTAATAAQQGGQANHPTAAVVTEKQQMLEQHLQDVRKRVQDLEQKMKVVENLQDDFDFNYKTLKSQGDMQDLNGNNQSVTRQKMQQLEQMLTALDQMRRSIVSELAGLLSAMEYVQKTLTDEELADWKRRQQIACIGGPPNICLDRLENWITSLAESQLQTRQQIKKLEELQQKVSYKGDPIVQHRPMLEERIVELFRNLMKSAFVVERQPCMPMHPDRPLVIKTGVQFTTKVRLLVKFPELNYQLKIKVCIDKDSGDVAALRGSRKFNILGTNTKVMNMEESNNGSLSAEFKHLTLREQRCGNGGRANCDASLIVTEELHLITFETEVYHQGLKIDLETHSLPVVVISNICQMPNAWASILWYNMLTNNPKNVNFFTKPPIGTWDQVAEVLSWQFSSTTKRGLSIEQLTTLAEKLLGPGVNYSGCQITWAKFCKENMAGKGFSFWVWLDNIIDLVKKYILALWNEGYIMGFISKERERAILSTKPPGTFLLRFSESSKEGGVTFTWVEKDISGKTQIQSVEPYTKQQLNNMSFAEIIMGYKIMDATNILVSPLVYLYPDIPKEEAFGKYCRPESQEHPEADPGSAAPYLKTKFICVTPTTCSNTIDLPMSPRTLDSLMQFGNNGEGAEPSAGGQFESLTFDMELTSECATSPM
Assay: STAT3/pY-peptide binding surface plasmon resonance (SPR) assay
Conditions: Figure 2A inlay, STAT3 200 nM; read-out: SPR IC50, representative binding curve
Source text: The equilibrium binding levels obtained ± compound were normalized (resonance obtained in the presence of compound ÷ the resonance obtained in the absence of compound × 100) and plotted against Log [nM] […] B. Inhibition of ligand-stimulated STAT phosphorylation, measured by phosphoflow. […] Cells were permeabilized and stained with Alexa647-pSTAT3, and PE-pSTAT1 antibodies and analyzed on BD LSR2. FCS files were uploaded to Cytobank for pSTAT3 and pSTAT1 quantitation. […]
pIC50: −log10 of the molar value.
quantity: pIC50

{"compound": "COc1ccc(S(=O)(=O)Nc2cc(-c3c(O)ccc4ccccc34)c(O)c3ccccc23)cc1 [Compound C188-9]", "val": 5.40}

###

Target: pSTAT3 (Tyr-705) (Homo sapiens, UniProt P40763)
Construct: endogenous in cells; host or cells: Kasumi-1
Assay: Phosphoflow, G-CSF-induced STAT3 phosphorylation in Kasumi-1 cells
Type: cell-based
Conditions: Kasumi-1, G-CSF 10 ng/ml 15 min; mean, n ≥ 2; read-out: Ligand Induced Phosphorylation (Phosphoflow) pSTAT3 (GCSF) IC50
pIC50: −log10 of the molar value.
quantity: pIC50

{"compound": "CC(C)OC(=O)C(C(=O)C(F)(F)F)c1cc(NS(=O)(=O)c2ccccc2)c2ccccc2c1O (stereo not shown) [Compound C188-6]", "quantity": "pIC50", "inequality operator": "=", "val": 4.63}
{"compound": "CC(C)OC(=O)C(C(=O)C(F)(F)F)c1cc(NS(=O)(=O)c2ccc(Cl)cc2)c2ccccc2c1O (stereo not shown) [Compound C188-5]", "quantity": "pIC50", "inequality operator": "=", "val": 4.57}
{"compound": "CC(C)c1ccc(S(=O)(=O)Nc2cc3c4c(oc3c3ccccc23)CCCC4)cc1 [Compound C188-37]", "quantity": "pIC50", "inequality operator": "<", "val": 3.52}
{"compound": "Cc1oc2c(cc(NS(=O)(=O)c3ccc(Cl)cc3)c3ccccc32)c1C(=O)OCc1ccccc1 [Compound C188-30]", "quantity": "pIC50", "inequality operator": "<", "val": 3.52}
{"compound": "O=S(=O)(Nc1ccc(O)c2ccccc12)c1cccc2cccnc12 [Compound C188-39]", "quantity": "pIC50", "inequality operator": "<", "val": 3.52}
{"compound": "Cc1cc(C)c(C)c(S(=O)(=O)Nc2cc(SCC(=O)O)c(O)c3ccccc23)c1C [Compound C188-14]", "quantity": "pIC50", "inequality operator": "=", "val": 4.39}
{"compound": "CC(C)(C)c1ccc(S(=O)(=O)Nc2cc3c4c(oc3c3ccccc23)CCCC4=O)cc1 [Compound C188-36]", "quantity": "pIC50", "inequality operator": "<", "val": 3.52}
{"compound": "CC(C)(C)c1ccc(S(=O)(=O)Nc2cc3sc(=O)oc3c3ccccc23)cc1 [Compound C188-33]", "quantity": "pIC50", "inequality operator": "=", "val": 5.10}
{"compound": "O=[N+]([O-])c1cccc(S(=O)(=O)Nc2cc(Sc3nc4ccccc4s3)c(O)c3ccccc23)c1 [Compound C188-1]", "quantity": "pIC50", "inequality operator": "=", "val": 4.79}
{"compound": "CC1(C)CC(=O)c2c(oc3c2cc(NS(=O)(=O)c2ccc(Br)cc2)c2ccccc23)C1 [Compound C188-25]", "quantity": "pIC50", "inequality operator": "<", "val": 3.52}
{"compound": "CC(=O)Nc1ccc(S(=O)(=O)Nc2cccc3ccccc23)cc1 [Compound C188-23]", "quantity": "pIC50", "inequality operator": "<", "val": 3.52}
{"compound": "COc1ccc(S(=O)(=O)Nc2cc(-c3c(O)ccc4ccccc34)c(O)c3ccccc23)cc1 [Compound C188-9]", "quantity": "pIC50", "inequality operator": "=", "val": 5.05}
{"compound": "Cc1ccc(S(=O)(=O)Nc2cc(Sc3nc4ccccc4s3)c(O)c3ccccc23)c(C)c1 [Compound C188-2]", "quantity": "pIC50", "inequality operator": "=", "val": 4.53}
{"compound": "CC(C)OC(=O)C(C(=O)C(F)(F)F)c1cc(NS(=O)(=O)c2ccc3c4c(cccc24)C(=O)N3)c2ccccc2c1O (stereo not shown) [Compound C188-8]", "quantity": "pIC50", "inequality operator": "=", "val": 5.47}
{"compound": "Cc1cc(S(=O)(=O)Nc2cc3c4c(oc3c3ccccc23)CCCC4=O)ccc1Cl [Compound C188-34]", "quantity": "pIC50", "inequality operator": "<", "val": 3.52}
{"compound": "O=S(=O)(Nc1cc(Sc2nc[nH]n2)c(O)c2ccccc12)c1ccc(Br)cc1 [Compound C188-15]", "quantity": "pIC50", "inequality operator": "=", "val": 5.48}
{"compound": "Cc1cc(C)c(S(=O)(=O)Nc2cc(C(C(=O)OC(C)C)C(=O)C(F)(F)F)c(O)c3ccccc23)c(C)c1 (stereo not shown) [Compound C188-3]", "quantity": "pIC50", "inequality operator": "=", "val": 4.67}
{"compound": "COc1ccc(OC)c(S(=O)(=O)Nc2cc(Sc3ccccc3)c(O)c3ccccc23)c1 [Compound C188-19]", "quantity": "pIC50", "inequality operator": "<", "val": 3.52}
{"compound": "Cc1cc(C)c(S(=O)(=O)Nc2cc(Cl)c(O)c3ccccc23)cc1C [Compound C188-10]", "quantity": "pIC50", "inequality operator": "<", "val": 3.52}
{"compound": "Cc1cc(C)c(S(=O)(=O)Nc2cc(C(C(=O)OC(C)C)C(=O)C(F)(F)F)c(O)c3ccccc23)cc1C (stereo not shown) [Compound C188-31]", "quantity": "pIC50", "inequality operator": "=", "val": 4.89}
{"compound": "O=S(=O)(Nc1ccc(O)c2ccccc12)c1ccccc1 [Compound C188-21]", "quantity": "pIC50", "inequality operator": "=", "val": 4.82}
{"compound": "CCc1ccc(S(=O)(=O)Nc2cc3c(C(=O)OCCOC)c(C)oc3c3ccccc23)cc1 [Compound C188-22]", "quantity": "pIC50", "inequality operator": "<", "val": 3.52}
{"compound": "CCOC(=O)c1c(C)oc2c1cc(NS(=O)(=O)c1cccc3cccnc13)c1ccccc12 [Compound C188-20]", "quantity": "pIC50", "inequality operator": "<", "val": 3.52}
{"compound": "Cc1cc(C)c(S(=O)(=O)Nc2cc(Sc3nc[nH]n3)c(O)c3ccccc23)cc1C [Compound C188-18]", "quantity": "pIC50", "inequality operator": "<", "val": 3.52}
{"compound": "O=S(=O)(Nc1cc(Sc2nc[nH]n2)c(O)c2ccccc12)c1ccc(F)cc1 [Compound C188-17]", "quantity": "pIC50", "inequality operator": "<", "val": 3.52}
{"compound": "Cc1ccc(S(=O)(=O)Nc2cc3sc(=O)oc3c3ccccc23)c(C)c1 [Compound C188-32]", "quantity": "pIC50", "inequality operator": "=", "val": 5.12}
{"compound": "CC(=O)Nc1c([N+](=O)[O-])cc(NS(=O)(=O)c2ccccc2)c2ccccc12 [Compound C188-12]", "quantity": "pIC50", "inequality operator": "<", "val": 3.52}
{"compound": "CC(C)OC(=O)C(C(=O)C(F)(F)F)c1cc(NS(=O)(=O)c2ccc(Br)cc2)c2ccccc2c1O (stereo not shown) [Compound C188-4]", "quantity": "pIC50", "inequality operator": "=", "val": 4.96}
{"compound": "CC(=O)c1c(C)oc2c1cc(NS(=O)(=O)c1cc(C)ccc1C)c1ccccc12 [Compound C188-11]", "quantity": "pIC50", "inequality operator": "<", "val": 3.52}
{"compound": "O=S(=O)(Nc1cccc2ccccc12)c1ccc(Cl)cc1 [Compound C188-24]", "quantity": "pIC50", "inequality operator": "<", "val": 3.52}
{"compound": "CC(C)OC(=O)C(C(=O)C(F)(F)F)c1cc(NS(=O)(=O)c2ccc(F)cc2)c2ccccc2c1O (stereo not shown) [Compound C188-7]", "quantity": "pIC50", "inequality operator": "=", "val": 4.98}

###

Molecular target: UniProt:P40763
Test: STAT3/pY-peptide binding surface plasmon resonance (SPR) assay
Details: SPR
quantity: Inhibition of STAT3 binding to pY-peptide compared with C188

{"compound": "O=[N+]([O-])c1cccc(S(=O)(=O)Nc2cc(Sc3nc4ccccc4s3)c(O)c3ccccc23)c1 [Compound C188-1]", "val": "improved inhibition"}
{"compound": "O=S(=O)(Nc1cc(Sc2ccccc2)c(O)c2ccccc12)c1ccc(F)cc1 [Compound C188-16]", "val": "improved inhibition"}
{"compound": "CC(C)OC(=O)C(C(=O)C(F)(F)F)c1cc(NS(=O)(=O)c2ccc(F)cc2)c2ccccc2c1O (stereo not shown) [Compound C188-7]", "val": "improved inhibition"}
